# Tested on: U251 CNS
# assay: NCI-60 one-dose screen, 48 h (100 = growth as untreated, 0 = no growth, -100 = all killed)
# condition_context: 10 µM unless noted
Compounds without any hit were thinned out: in the full panel of roughly 83,000, 20% have a hit.
growth by entry:
Write the number in % without appending the unit.

{"columns": ["compound", "growth, %"],
 "data": [
  ["O=C1OC2(c3ccccc31)c1ccc(O)c(O)c1Oc1c2ccc(O)c1O", 104],
  ["Nc1ccccc1SC1CC(=O)N(c2cccc3ccccc23)C1=O (centres undefined)", 97.3],
  ["Cc1ccc(S(=O)(=O)NCN2C(=O)c3ccccc3C2=O)cc1", 103],
  ["COc1ccc2ccccc2c1/C=N/N1CCCCC1", 97.8],
  ["CCCCCCCCCCCCCCCCOc1ccc(C)cc1", 101]
]}

Tested on U251 CNS: `Cc1ccc(-c2noc(CC(=O)c3ccc([N+](=O)[O-])cc3)n2)cc1` . Observed growth: 96.8

Tested on U251 CNS: `O=C(CN1CCOCC1)N1CCOCC1` . Observed growth: 107

====

# Test system: NCI-H23 lung
# assay: NCI-60 one-dose screen, 48 h (100 = growth as untreated, 0 = no growth, -100 = all killed)
# condition_context: 10 µM
# Experimental: Growth inhibition of the NCI-H23 human Non-Small Cell Lung tumor cell line is measured as a screen for anti-cancer activity. Cells are grown in 96 well plates and exposed to the test compound for 48 hours. Compounds are tested at a single concentration, which is 10^-5 M for most compounds. The reported endpoint is percent growth (GI% or GIPRCNT), where numbers from 0 - 100% represent growth inhibition, and numbers from -100% - 0 represent cell death. […]
About 83,000 compounds went through this panel and 20% of them were active in at least one assay; those are over-represented in the sample as a whole.
growth by entry:
Write the number in % without appending the unit.

Worked set:
{"columns": ["molecule", "unit_annotation", "growth"],
 "data": [
  ["Cc1[nH]c(-c2nc3ccccc3[nH]2)c(C)c1C(=O)NC(C)C1CCCCC1 (centres undefined)", "%", 87.1],
  ["CCc1ccccc1-n1c(N)c(C#N)c(-c2ccc(OC)c(OC)c2)c(C#N)c1=O", "%", 105]
]}

Lab note: measured growth of CCCCCCCCCCCCCCCc1ccc(Cl)c(O)c1Cl (tested in a mixture with another compound) was 88.8

Lab note: measured growth of `CC1(C)OB(c2ccc(Cn3cc(F)c(=O)[nH]c3=O)cc2)OC1(C)C` was 94.9

====

# Test system: HCT-15 colon
# assay: NCI-60 one-dose screen, 48 h (100 = growth as untreated, 0 = no growth, -100 = all killed)
# condition_context: 10 µM unless noted
The panel holds about 83,000 compounds, 20% with a hit somewhere; the sample as a whole holds those more often.
measurement_kind: growth (%)
Write the number in % without appending the unit.

Worked set:
{"columns": ["compound", "test_target", "val"],
 "data": [
  ["Cc1ccc(-c2noc(C)n2)cc1", "HCT-15 colon", 101],
  ["Cc1ccc(-c2noc(CC(=O)c3ccc([N+](=O)[O-])cc3)n2)cc1", "HCT-15 colon", 98.3],
  ["CC(=O)C(/C=N/C(N)=O)=C(/C)O", "HCT-15 colon", 104],
  ["Nc1n[nH]c(=S)n1-c1ccc(Cl)cc1", "HCT-15 colon", 99.3],
  ["COc1ccc2ccccc2c1/C=N/N1CCCCC1", "HCT-15 colon", 99.4],
  ["CC1(c2ccc3ccccc3c2)CCC(=O)O1 (stereo not drawn)", "HCT-15 colon", 107],
  ["Cc1n[nH]c(=O)n(/N=C\\c2c[nH]c3ccccc23)c1=O", "HCT-15 colon", 105],
  ["O=C(O)c1cc(C(=O)O)cc([N+](=O)[O-])c1", "HCT-15 colon", 104],
  ["N#CCCOc1ccccc1", "HCT-15 colon", 97.5],
  ["COc1cc(C(=O)N/N=C/c2ccc(N(C)C)cc2)cc(OC)c1OC", "HCT-15 colon", 20]
]}

Lab note: measured growth of `S=C(S)N1CCCC1` was 107

Lab note: measured growth of `Clc1nc(Oc2ccccc2)nc(-c2cn(-c3ccccc3)c3ccccc23)n1` was 38.5

Lab note: measured growth of CC(/C=N/N1C(=O)c2ccccc2C1=O)c1ccccc1 (stereo not drawn) was 98.2
